Observed ΔTm values for Ribosomal protein S6 kinase alpha-3 (Homo sapiens) are listed in what follows.
Quick reminder: number only, in °C, skip the unit.

As a guide, the following entries are already answered.
C/C(O)=C(\C#N)C(=O)Nc1cc(Br)ccc1Br | 0.6
Nc1nccc(-c2c(-c3ccc(F)cc3)ncn2C2CCNCC2)n1 | 0.8
CCCCc1c(-c2ccc(O)cc2)[nH]c2nccnc12 [ALOISINE A] | 3
Cn1cc(/C=C2/C(=O)Nc3ccc(S(N)(=O)=O)cc32)c2ccccc21 | 7.8

System Ribosomal protein S6 kinase alpha-3 (Homo sapiens). Read-out ΔTm. Item `O=c1cc(N2CCOCC2)oc2c1ccc1ccccc12` . Report value.
0.3

System Ribosomal protein S6 kinase alpha-3 (Homo sapiens). Read-out ΔTm. Item COc1cc(/C=C/C(=O)CC(=O)/C=C/c2ccc(O)c(OC)c2)ccc1O [CURCUMIN] . Report value.
3.4

System Ribosomal protein S6 kinase alpha-3 (Homo sapiens). Read-out ΔTm. Item CN(C)C[C@@H]1CCn2cc(c3ccccc32)C2=C(C(=O)NC2=O)c2cn(c3ccccc23)CCO1 [RUBOXISTAURIN] . Report value.
8.1

System Ribosomal protein S6 kinase alpha-3 (Homo sapiens). Read-out ΔTm. Item `C#Cc1cccc(Nc2ncnc3cc(OCCOC)c(OCCOC)cc23)c1` . Report value.
-0.2

System Ribosomal protein S6 kinase alpha-3 (Homo sapiens). Read-out ΔTm. Item `COc1ccc(COc2ccc(Cc3cnc(N)nc3N)cc2OC)cc1` . Report value.
-0.3

System Ribosomal protein S6 kinase alpha-3 (Homo sapiens). Read-out ΔTm. Item `CCN1/C(=C/C(C)=O)Sc2ccc(OC)cc21` . Report value.
0.4

System Ribosomal protein S6 kinase alpha-3 (Homo sapiens). Read-out ΔTm. Item `O=c1cc(N2CCOCC2)oc2c(-c3ccccc3)cccc12` . Report value.
0

System Ribosomal protein S6 kinase alpha-3 (Homo sapiens). Read-out ΔTm. Item COC(=O)[C@]1(O)C[C@@H]2O[C@@]1(C)n1c3ccccc3c3c4c(c5c6ccccc6n2c5c31)C(=O)NC4 (single isomer, unassigned) . Report value.
7.3

System Ribosomal protein S6 kinase alpha-3 (Homo sapiens). Read-out ΔTm. Item `O=C1NC(=O)c2c1c1c3ccccc3n3c1c1c2c2ccccc2n1C1CCC3O1` . Report value.
0

System Ribosomal protein S6 kinase alpha-3 (Homo sapiens). Read-out ΔTm. Item `COc1cc2ncnc(Nc3ccc(F)c(Cl)c3)c2cc1OCCCN1CCOCC1` . Report value.
1.3

System Ribosomal protein S6 kinase alpha-3 (Homo sapiens). Read-out ΔTm. Item `O=C1NC(=O)C(c2c[nH]c3ccccc23)=C1c1c[nH]c2ccccc12` . Report value.
3.6

System Ribosomal protein S6 kinase alpha-3 (Homo sapiens). Read-out ΔTm. Item `O=c1c(-c2ccc(F)cc2)c(-c2ccncc2)[nH]n1-c1ccc(Cl)cc1` . Report value.
1.2
